Test system: MALME-3M melanoma
assay_comment: NCI tumour cell line growth inhibition, 48 h
Recorded TGI, one value per entry.

// query Requested read-out TGI, target or system MALME-3M melanoma, entry "O=C(Nc1ccccc1)c1cc(S(=O)(=O)Nc2n[nH]c(=O)n2-c2ccccc2)c(S)cc1Cl"
// result > 100 µM

====

Test system: HCC-2998 colon
assay_comment: NCI tumour cell line growth inhibition, 48 h
Recorded TGI, one value per entry.

Example molecules with recorded TGI:
>>> recorded_value("CC(=O)Nc1ccc2c(c1)/C(=C\\c1ccc([N+](C)(C)C)cc1)c1ccccc1-2")
"> 100 µM"
>>> recorded_value("C/C=C(\\C)c1cc(=O)c2c(C)cc3c(c2o1)C(=O)c1c(O)c(C2CC(C)(N(C)C)C(OC(C)=O)C(C)O2)cc(C2CC(N(C)C)C(O)C(C)O2)c1C3=O (configuration not stated)")
"2.32 µM"

// query Requested read-out TGI, target or system HCC-2998 colon, entry "Cc1[nH]c(=O)nc2nc3cc(Cl)cc(Cl)c3c(NC(C)(CO)CO)c12"
// result > 100 µM

// query What do you get for CC(/C=C/C(=O)NO)=C\C(C)C(=O)c1ccc(N(C)C)cc1 (configuration not stated) ?
// result < 0.0113 µM

// query What do you get for "CC(C)[N+]([O-])(CCCNc1c2ccccc2nc2cccc([N+](=O)[O-])c12)C(C)C" ?
// result 0.0227 µM
